Counter-ions that a name gives are not always drawn.
measurement-name: melting point (°C)

Entry CCCCCCc1cccc(C(NC2CCN(C)CC2)c2nc3ccccc3[nH]2)c1 (stereo not shown) (as salt: oxalate) , melting point reported as 115

CN1CCC(OC(c2cccc(-n3cccn3)c2)c2nc3ccccc3s2)CC1 (stereo not shown) (as salt: oxalate) has a reported melting point of 89

CN1CCC(OC(c2cccc(Br)c2)c2nc3cc(F)c(F)c(F)c3[nH]2)CC1 (stereo not shown) has a reported melting point of 140

Reported melting point for CN1CCC(OC(c2nc3ccccc3[nH]2)c2cc(Oc3ccccc3)ccc2O)CC1 (stereo not shown) was 140

For CN1CCC(NC(c2cccc(OCCCCN)c2)c2nc3ccccc3[nH]2)CC1 (stereo not shown) the compound record lists melting point as 68

melting point reading for Cc1ccc(C(OC2CCN(C)CC2)c2nc3ccccc3[nH]2)cc1Cl (stereo not shown) : 86

compound CN1CCC(NC(c2cccc(N=[N+]=[N-])c2)c2nc3ccccc3[nH]2)CC1 (stereo not shown) , melting point observed: 202

CN1CCC(OC(c2nc3ccccc3[nH]2)c2cc(C(F)(F)F)ccc2O)CC1 (stereo not shown) has a reported melting point of 135

a: CN1CCC(NC(c2cccc(OCC3CCCCC3)c2)c2nc3ccccc3s2)CC1 (stereo not shown) (as salt: oxalate)
b: CN1CCC(OC(c2cccc(N3CCCC3CN)c2)c2nc3ccccc3s2)CC1 (stereo not shown) (as salt: oxalate)
c: CN1CCC(OC(c2cccc(SCCNC(=N)NC#N)c2)c2nc3ccccc3[nH]2)CC1 (stereo not shown)
*Q* Put these in order: smallest melting point first, largest last. Present the labels in the sequence the task asks for.
*A* c, a, b
